Numbers sourced from paper PMC4301919.

Molecular target: T1, TRBP-ΔC (UniProt Q15633-2 9-215)
T1 sequence: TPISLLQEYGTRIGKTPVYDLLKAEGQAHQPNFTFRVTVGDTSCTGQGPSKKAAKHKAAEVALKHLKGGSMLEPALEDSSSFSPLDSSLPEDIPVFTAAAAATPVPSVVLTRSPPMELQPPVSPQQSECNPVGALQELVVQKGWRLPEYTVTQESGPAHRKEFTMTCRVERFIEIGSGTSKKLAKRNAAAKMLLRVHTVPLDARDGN
Assay: EMSA; apparent Kd; nH 3.1; 50 mM sodium cacodylate pH 7.0, 50 mM potassium glutamate, 5% glycerol; EMSA 0.5 pM RNA, 30 min at room temperature, gel 0.25X TBE at 10 C; CD at 10 C with 5-15 uM RNA
Details: protein: recombinant; label: 5'-32P; hairpin, 16 bp stem, U6 loop
Metric: Kd (nM)
Report the value in nM with no unit label.

Prompt: If you can, please state the reported Kd value of GUCAGCAGUGCCUUAGUUUUUUCUAAGGCACUGCUGAC (structured_RNA) [ds16-hexa-U] .
Completion: 610
